- Tested on: Mannheimia haemolytica
- ASSAY NOTES: minimum inhibitory concentration (MIC)
- EXPERIMENTAL CONDITIONS: isolate (source animal id): 209
Item-by-item account of minimum inhibitory concentration

{"MOLECULE": "CC[C@H]1OC(=O)C[C@@H](O)[C@H](C)[C@@H](O[C@@H]2O[C@H](C)[C@@H](O[C@H]3C[C@@](C)(O)[C@@H](O)[C@H](C)O3)[C@H](N(C)C)[C@H]2O)[C@@H](CC=O)C[C@@H](C)C(=O)/C=C/C(C)=C/[C@@H]1CO[C@@H]1O[C@H](C)[C@@H](O)[C@@H](OC)[C@H]1OC [Tylosin]", "minimum inhibitory concentration": "> 32 µg/mL"}
{"MOLECULE": "CCC[C@@H]1C[C@@H](C(=O)N[C@@H]([C@H]2O[C@H](SC)[C@H](O)[C@@H](O)[C@H]2O)[C@H](C)Cl)N(C)C1 [Clindamycin]", "minimum inhibitory concentration": "16 µg/mL"}
{"MOLECULE": "NC[C@@H]1O[C@H](O[C@H]2[C@@H](O)[C@H](O[C@@H]3[C@@H](O)[C@H](N)C[C@H](N)[C@H]3O[C@H]3O[C@H](CN)[C@@H](O)[C@H](O)[C@H]3N)O[C@@H]2CO)[C@H](N)[C@@H](O)[C@@H]1O [Neomycin]", "minimum inhibitory concentration": "> 32 µg/mL"}
{"MOLECULE": "CO/N=C(\\C(=O)N[C@@H]1C(=O)N2C(C(=O)O)=C(CSC(=O)c3ccco3)CS[C@H]12)c1csc(N)n1 [Ceftiofur]", "minimum inhibitory concentration": "≤ 0.25 µg/mL"}

---

- Tested on: Enterococcus spp.
- ASSAY NOTES: minimum inhibitory concentration (MIC)
- EXPERIMENTAL CONDITIONS: isolate (source animal id): 244

{"SMILES STRUCTURE": "CCN1CCN(c2cc3c(cc2F)c(=O)c(C(=O)O)cn3C2CC2)CC1", "ASSAY TARGET": "Enterococcus spp.", "OPERATOR": "=", "minimum inhibitory concentration (µg/mL)": 0.5}
{"SMILES STRUCTURE": "CS(=O)(=O)c1ccc([C@@H](O)[C@@H](CF)NC(=O)C(Cl)Cl)cc1", "ASSAY TARGET": "Enterococcus spp.", "OPERATOR": "=", "minimum inhibitory concentration (µg/mL)": 2}
{"SMILES STRUCTURE": "NC[C@@H]1O[C@H](O[C@H]2[C@@H](O)[C@H](O[C@@H]3[C@@H](O)[C@H](N)C[C@H](N)[C@H]3O[C@H]3O[C@H](CN)[C@@H](O)[C@H](O)[C@H]3N)O[C@@H]2CO)[C@H](N)[C@@H](O)[C@@H]1O", "ASSAY TARGET": "Enterococcus spp.", "OPERATOR": "=", "minimum inhibitory concentration (µg/mL)": 8}
{"SMILES STRUCTURE": "COc1cc(NS(=O)(=O)c2ccc(N)cc2)nc(OC)n1", "ASSAY TARGET": "Enterococcus spp.", "OPERATOR": ">", "minimum inhibitory concentration (µg/mL)": 256}
{"SMILES STRUCTURE": "CCCN1C[C@H](C)[C@@H](O)[C@](C)(O)[C@@H](CC)OC(=O)[C@H](C)[C@@H](O[C@H]2C[C@@](C)(OC)[C@@H](O)[C@H](C)O2)[C@H](C)[C@@H](O[C@@H]2O[C@H](C)C[C@H](N(C)C)[C@H]2O)[C@](C)(O)C[C@H]1C", "ASSAY TARGET": "Enterococcus spp.", "OPERATOR": "≤", "minimum inhibitory concentration (µg/mL)": 1}
{"SMILES STRUCTURE": "CC1(C)S[C@@H]2[C@H](NC(=O)Cc3ccccc3)C(=O)N2[C@H]1C(=O)O", "ASSAY TARGET": "Enterococcus spp.", "OPERATOR": "=", "minimum inhibitory concentration (µg/mL)": 1}
{"SMILES STRUCTURE": "CN(C)[C@@H]1C(O)=C(C(N)=O)C(=O)[C@@]2(O)C(O)=C3C(=O)c4c(O)cccc4[C@@](C)(O)[C@H]3C[C@@H]12", "ASSAY TARGET": "Enterococcus spp.", "OPERATOR": "≤", "minimum inhibitory concentration (µg/mL)": 0.5}

---

minimum inhibitory concentration for assorted compounds
- Test system: Escherichia coli
- ASSAY NOTES: minimum inhibitory concentration (MIC)
- EXPERIMENTAL CONDITIONS: isolate (source animal id): 187

{"SMILES STRUCTURE": "NC[C@@H]1O[C@H](O[C@H]2[C@@H](O)[C@H](O[C@@H]3[C@@H](O)[C@H](N)C[C@H](N)[C@H]3O[C@H]3O[C@H](CN)[C@@H](O)[C@H](O)[C@H]3N)O[C@@H]2CO)[C@H](N)[C@@H](O)[C@@H]1O", "minimum inhibitory concentration": "32 µg/mL"}
{"SMILES STRUCTURE": "COc1cc(NS(=O)(=O)c2ccc(N)cc2)nc(OC)n1", "minimum inhibitory concentration": "> 256 µg/mL"}
{"SMILES STRUCTURE": "CO/N=C(\\C(=O)N[C@@H]1C(=O)N2C(C(=O)O)=C(CSC(=O)c3ccco3)CS[C@H]12)c1csc(N)n1", "minimum inhibitory concentration": "≤ 0.25 µg/mL"}
{"SMILES STRUCTURE": "CCN1CCN(c2cc3c(cc2F)c(=O)c(C(=O)O)cn3C2CC2)CC1", "minimum inhibitory concentration": "≤ 0.12 µg/mL"}

---

- System: Escherichia coli
- ASSAY NOTES: minimum inhibitory concentration (MIC)
- EXPERIMENTAL CONDITIONS: isolate (source animal id): 12
ASSAY READOUT: minimum inhibitory concentration

{"SMILES STRUCTURE": "CC[C@H]1OC(=O)C[C@@H](O)[C@H](C)[C@@H](O[C@@H]2O[C@H](C)[C@@H](O)[C@H](N(C)C)[C@H]2O)[C@@H](CCN2C[C@H](C)C[C@H](C)C2)C[C@@H](C)C(=O)/C=C/C(C)=C/[C@@H]1CO[C@@H]1O[C@H](C)[C@@H](O)[C@@H](OC)[C@H]1OC", "RESULT": "> 16 µg/mL"}
{"SMILES STRUCTURE": "CN(C)[C@@H]1C(O)=C(C(N)=O)C(=O)[C@@]2(O)C(O)=C3C(=O)c4c(O)cccc4[C@@](C)(O)[C@H]3C[C@@H]12", "RESULT": "> 8 µg/mL"}
{"SMILES STRUCTURE": "CN[C@@H]1[C@H](O)[C@H](NC)[C@H]2O[C@@]3(O)C(=O)C[C@@H](C)O[C@H]3O[C@@H]2[C@H]1O", "RESULT": "32 µg/mL"}
{"SMILES STRUCTURE": "CN1C[C@@H]2C[C@H]1CN2c1cc2c(cc1F)c(=O)c(C(=O)O)cn2C1CC1", "RESULT": "> 1 µg/mL"}
{"SMILES STRUCTURE": "COc1cc(Cc2cnc(N)nc2N)cc(OC)c1OC.Cc1cc(NS(=O)(=O)c2ccc(N)cc2)no1", "RESULT": "> 2 µg/mL"}
{"SMILES STRUCTURE": "CCC[C@@H]1C[C@@H](C(=O)N[C@@H]([C@H]2O[C@H](SC)[C@H](O)[C@@H](O)[C@H]2O)[C@H](C)Cl)N(C)C1", "RESULT": "> 16 µg/mL"}
{"SMILES STRUCTURE": "CCCN1C[C@H](C)[C@@H](O)[C@](C)(O)[C@@H](CC)OC(=O)[C@H](C)[C@@H](O[C@H]2C[C@@](C)(OC)[C@@H](O)[C@H](C)O2)[C@H](C)[C@@H](O[C@@H]2O[C@H](C)C[C@H](N(C)C)[C@H]2O)[C@](C)(O)C[C@H]1C", "RESULT": "8 µg/mL"}

---

- Tested on: Pasteurella multocida
- ASSAY NOTES: minimum inhibitory concentration (MIC)
- EXPERIMENTAL CONDITIONS: isolate (source animal id): 155
# maps each entry to its minimum inhibitory concentration
ASSAY READOUT: minimum inhibitory concentration

{"COMPOUND": "CN[C@@H]1[C@H](O)[C@H](NC)[C@H]2O[C@@]3(O)C(=O)C[C@@H](C)O[C@H]3O[C@@H]2[C@H]1O [Spectinomycin]", "RESULT": "32 µg/mL"}
{"COMPOUND": "CC[C@H]1OC(=O)C[C@@H](O)[C@H](C)[C@@H](O[C@@H]2O[C@H](C)[C@@H](O)[C@H](N(C)C)[C@H]2O)[C@@H](CCN2CCCCC2)C[C@@H](C)C(=O)/C=C/C(C)=C/[C@@H]1CN1CCCCC1 [Tildipirosin]", "RESULT": "> 16 µg/mL"}
{"COMPOUND": "CS(=O)(=O)c1ccc([C@@H](O)[C@@H](CF)NC(=O)C(Cl)Cl)cc1 [Florfenicol]", "RESULT": "0.5 µg/mL"}
{"COMPOUND": "CN(C)[C@@H]1C(O)=C(C(N)=O)C(=O)[C@@]2(O)C(O)=C3C(=O)c4c(O)cccc4[C@@](C)(O)[C@H]3C[C@@H]12 [Tetracycline]", "RESULT": "> 8 µg/mL"}
{"COMPOUND": "CO/N=C(\\C(=O)N[C@@H]1C(=O)N2C(C(=O)O)=C(CSC(=O)c3ccco3)CS[C@H]12)c1csc(N)n1 [Ceftiofur]", "RESULT": "≤ 0.25 µg/mL"}
{"COMPOUND": "NC[C@@H]1O[C@H](O[C@H]2[C@@H](O)[C@H](O[C@@H]3[C@@H](O)[C@H](N)C[C@H](N)[C@H]3O[C@H]3O[C@H](CN)[C@@H](O)[C@H](O)[C@H]3N)O[C@@H]2CO)[C@H](N)[C@@H](O)[C@@H]1O [Neomycin]", "RESULT": "> 32 µg/mL"}
{"COMPOUND": "CN1C[C@@H]2C[C@H]1CN2c1cc2c(cc1F)c(=O)c(C(=O)O)cn2C1CC1 [Danofloxacin]", "RESULT": "> 1 µg/mL"}
{"COMPOUND": "CCN1CCN(c2cc3c(cc2F)c(=O)c(C(=O)O)cn3C2CC2)CC1 [Enrofloxacin]", "RESULT": "0.5 µg/mL"}
